system.name: FSHR (Homo sapiens, UniProt P23945)
Construct: expressed in transfected cells; host or cells: CHO (Cho-FSHR-LUC-1-1-43)
Sequence (P23945 18-695): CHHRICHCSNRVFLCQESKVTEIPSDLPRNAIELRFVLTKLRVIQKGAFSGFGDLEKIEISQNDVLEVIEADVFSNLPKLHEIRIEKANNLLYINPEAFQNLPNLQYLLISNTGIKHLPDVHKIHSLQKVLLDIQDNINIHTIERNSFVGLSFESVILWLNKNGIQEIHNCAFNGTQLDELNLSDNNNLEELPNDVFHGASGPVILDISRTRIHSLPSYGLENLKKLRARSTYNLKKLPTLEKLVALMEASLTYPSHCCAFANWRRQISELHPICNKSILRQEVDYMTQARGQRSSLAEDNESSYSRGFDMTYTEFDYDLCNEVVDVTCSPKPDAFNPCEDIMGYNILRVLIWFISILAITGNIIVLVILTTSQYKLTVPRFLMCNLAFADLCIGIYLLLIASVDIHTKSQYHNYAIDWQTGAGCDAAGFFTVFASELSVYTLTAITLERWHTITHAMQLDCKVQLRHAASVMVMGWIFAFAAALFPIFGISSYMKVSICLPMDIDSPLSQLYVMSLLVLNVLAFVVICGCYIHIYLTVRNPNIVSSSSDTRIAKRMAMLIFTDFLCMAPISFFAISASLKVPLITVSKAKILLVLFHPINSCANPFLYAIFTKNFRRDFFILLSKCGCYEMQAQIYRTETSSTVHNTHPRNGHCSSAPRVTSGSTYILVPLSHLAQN
Sequence (P01215 25-116 partner): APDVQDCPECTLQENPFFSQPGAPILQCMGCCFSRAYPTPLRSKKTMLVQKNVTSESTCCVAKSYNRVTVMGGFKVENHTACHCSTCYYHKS
Sequence (P01225 19-129 partner): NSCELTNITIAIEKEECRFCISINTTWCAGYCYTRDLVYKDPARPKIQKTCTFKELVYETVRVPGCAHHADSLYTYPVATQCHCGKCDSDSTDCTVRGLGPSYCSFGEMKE
experiment.notes: EC50 of cyclic AMP production in CHO FSHR cells + EC20 FSH (Assay A)
Type: cell-based
details: CHO FSHR cells + EC20 FSH; Table 2; read-out: Assay A EC50 of cyclic AMP production
Form field: EC50 (one value per entry).

{"line.notation": "Cc1cc(F)ccc1N1CCN(c2ccc(C(=O)NCCCN3CCCC3=O)cc2NC(=O)c2coc(C3CC3)n2)CC1", "EC50": "100 to 1000 nM"}
{"line.notation": "Cc1nc(C)n(CCCNC(=O)c2ccc(N3CCN(c4ccccc4C)CC3)c(NC(=O)c3coc(C4CC4)n3)c2)n1", "EC50": "100 to 1000 nM"}
{"line.notation": "Cc1ccccc1N1CCN(c2ccc(C(=O)NCCCN3CCCC3=O)cc2NC(=O)c2nc(C3CC3)cs2)CC1", "EC50": "100 to 1000 nM"}
{"line.notation": "Cc1ccccc1N1CCN(c2ccc(C(=O)NCCc3ccccc3C(N)=O)cc2NC(=O)c2coc(C3CC3)n2)CC1", "EC50": "100 to 1000 nM"}
{"line.notation": "Cc1ccccc1N1CCN(c2ccc(C(=O)NCCCNC(=O)NC(C)C)cc2NC(=O)c2ccco2)CC1", "EC50": "100 to 1000 nM"}
{"line.notation": "Cc1ccccc1N1CCN(c2ccc(C(=O)Nc3ccc(C(C)(C)C#N)cc3)cc2NC(=O)c2coc(C3CC3)n2)CC1", "EC50": "> 10000 nM"}
{"line.notation": "COC(=O)NCCCNC(=O)c1ccc(N2CCN(c3ccccc3C)CC2)c(NC(=O)c2ccc(C)o2)c1", "EC50": "100 to 1000 nM"}
{"line.notation": "Cc1ccccc1N1CCN(c2ccc(C(=O)NC3(c4cccc(C(N)=O)c4)CC3)cc2NC(=O)c2ccco2)CC1", "EC50": "100 to 1000 nM"}
{"line.notation": "Cc1ccccc1N1CCN(c2ccc(C(=O)N[C@H]3CCC[C@H](O)C3)cc2NC(=O)c2coc(C3CC3)n2)CC1", "EC50": "< 100 nM"}
{"line.notation": "Cc1ccccc1N1CCN(c2ccc(C(=O)NCCCNC(=O)NC(C)(C)C)cc2NC(=O)c2ccco2)CC1", "EC50": "100 to 1000 nM"}
{"line.notation": "Cc1ccccc1N1CCN(c2ccc(C(=O)NCCCNC(=O)NC3CCCCC3)cc2NC(=O)c2ccco2)CC1", "EC50": "100 to 1000 nM"}
{"line.notation": "Cc1ccccc1N1CCN(c2ccc(C(=O)NCc3cccc(-c4nccs4)c3)cc2NC(=O)c2coc(C3CC3)n2)CC1", "EC50": "100 to 1000 nM"}
{"line.notation": "Cc1ccccc1N1CCN(c2ccc(C(=O)N3CC4(COC4)C3)cc2NC(=O)c2coc(C3CC3)n2)CC1", "EC50": "100 to 1000 nM"}
{"line.notation": "CN(c1ccccc1)C1CCN(c2ccc(C(=O)NCCCN3CCCC3=O)cc2NC(=O)c2coc(C3CC3)n2)CC1", "EC50": "> 10000 nM"}
